assay: Apparent permeability from apical to basolateral side in human Caco2 cells assessed as drug recovery at 10 uM at pH 7.4 measured after 60 mins by HPLC-MS/MS method; assay type: ADME, cell-based; settings: Caco-2, pH 7.4, read-out: Drug recovery
Metric Name: recovery at 1 h, 10 µM (%)
Write it as a number; the unit % goes unstated.

Bench note: what recovery at 1 h, 10 µM did CN(C)C(=O)Oc1cccc2c1CC(C(=O)NCCOCCOCCN1C(=O)c3ccccc3C1=O)=CN2C show?
91

Each recorded value in this set is attributed to ChEMBL document CHEMBL4152292.
